method notes: Inhibition of baker's yeast alpha-glucosidase using phenol-alphaD-glycopyranoside as substrate preincubated for 10 mins followed by substrate addition and measured after 30 mins
Design: species or system Saccharomyces cerevisiae
pIC50: −log10 of the molar value.
experimental endpoint: pIC50

CC1(C)CC[C@@]23CC[C@]4(C)[C@](OC2=O)([C@H](F)C[C@@H]2[C@@]5(C)CCC(=O)C(C)(C)[C@@H]5CC[C@]24C)[C@@H]3C1 : 4.78
COc1ncc(F)cc1/C=C1\C[C@]2(C)[C@H]3C[C@@H](F)[C@]45OC(=O)[C@@]6(CCC(C)(C)C[C@H]64)CC[C@@]5(C)[C@]3(C)CC[C@H]2C(C)(C)C1=O : 5.69
CC1(C)CC[C@@]23CC[C@]4(C)[C@](OC2=O)([C@H](F)C[C@@H]2[C@@]5(C)C/C(=C\c6cccc(Br)c6)C(=O)C(C)(C)[C@@H]5CC[C@]24C)[C@@H]3C1 : 5.73

(P) CC1(C)CC[C@@]23CC[C@]4(C)[C@](OC2=O)([C@H](F)C[C@@H]2[C@@]5(C)C/C(=C\c6ccc(C(F)(F)F)cc6)C(=O)C(C)(C)[C@@H]5CC[C@]24C)[C@@H]3C1
(Q) CC1(C)CC[C@@]23CC[C@]4(C)[C@](OC2=O)([C@H](F)C[C@@H]2[C@@]5(C)C/C(=C\c6ccccc6Br)C(=O)C(C)(C)[C@@H]5CC[C@]24C)[C@@H]3C1
Q: Input pair: P , Q . Output: entry with lower pIC50. Pick one and reply with its label.
A: Q
